Test system: NCI-H460
Assay: NCI tumour cell line growth inhibition, 48 h
The source made the active and inactive calls. No stated cut-off is given here; in the data, active = GI50 up to about 1.1 µM and inactive = higher.
Outcome field: choose from t (active), f (inactive)

In: Recorded call for CC12CCC(O)CC1CCC1C2CCC2(C)C(C(=O)CC(O)C(F)(F)F)CCC12 (stereo unspecified) ?
Out: f

In: Try the compound `CNn1c(C)n[nH]c1=O`
Out: f

In: Try the compound `O=C1/C(=C/c2ccccc2)CN(C(=O)C(Cl)(Cl)Cl)C/C1=C\c1ccccc1`
Out: f

In: Try the compound `Cc1c2cc[n+](C)cc2c(C)c2c1[nH]c1ccc(Cl)cc12`
Out: f

In: Try the compound `N#Cc1ccc(-c2nc3c(N)nc(-c4ccccc4)nc3o2)cc1`
Out: f

In: Try the compound CN=S(=O)(C[C@]1(O)CC2OC1C1OC(C)(C)OC21)c1ccccc1 (stereo partly specified)
Out: f

In: Try the compound `O=C(O/N=C1/CCC/C1=C\c1ccccc1)c1ccccc1`
Out: f

In: Try the compound `CCOP(=O)(OCC)/C(C#N)=C/c1cc(O)ccc1O`
Out: f

In: Try the compound `COc1ccc(-c2cc(=O)c3c(OC)c(O)c(OC)cc3o2)cc1`
Out: f

In: Try the compound CCOC(=O)C1C(=O)CN2CCc3c([nH]c4ccccc34)C12C(=O)OCC (stereo unspecified)
Out: f

In: Try the compound Cc1cccc(C)c1NC(=O)C(=O)C1C(=O)N(c2ccccc2)N=C1N (stereo unspecified)
Out: f

In: Try the compound `Cc1c(C)c2ccc3oc4ccccc4c3c2oc1=O`
Out: f

In: Try the compound COc1ccc2c(c1)CC1Cc3cc(OC)c(OC)cc3CN1CC2 (stereo unspecified)
Out: f

In: Try the compound CC(=O)Oc1ccc2c(c1)CC[C@@H]1C2[C@@H](O[N+](=O)[O-])C[C@@]2(C)C1CC[C@@H]2O (stereo partly specified)
Out: f

In: Try the compound CN(C)CC(/C(Cc1ccccc1)=N\NC(=O)C[n+]1ccccc1)c1ccccc1 (stereo unspecified)
Out: f

In: Try the compound `N#Cc1nn(-c2ccc(Cl)cc2)c(=N)c2c(N)n3nc(-c4ccccc4)cc3nc12`
Out: t

In: Try the compound `CN(C)C(=O)/N=c1\ss/c(=N\C(=S)N(C)C)n1-c1ccccc1`
Out: f

In: Try the compound `CCC(=O)C1(N2CCOCC2)CCN(CCCC(=O)c2ccc(F)cc2)CC1`
Out: f

In: Try the compound CC(Br)C(=O)NC(CO)C(=O)O (stereo unspecified)
Out: f

In: Try the compound N#CC(O)CCOCc1ccccc1 (stereo unspecified)
Out: f

In: Try the compound CC1(C)C2CCC3(OCCO3)C1C1OC12 (stereo unspecified)
Out: f

In: Try the compound `CC(C)OC(=O)C1=C(O)c2ccccc2S(=O)(=O)N1`
Out: f

In: Try the compound `O=C(CCc1ccc(O)c(O)c1)OCCc1ccccc1`
Out: f

In: Try the compound C[C@]12CC[C@H](O[C@@H]3O[C@H](CO[C@@H]4O[C@H](CO)[C@@H](O)[C@H](O)[C@H]4O)[C@@H](O)[C@H](O)[C@H]3O)C[C@@H]1CC[C@@H]1[C@@H]2CC[C@]2(C)[C@@H](C3=CC(=O)OC3)CC[C@]12O [UZARIN]
Out: f

In: Try the compound `O=[N+]([O-])/C=C/c1cn(CCCCCCCCn2cc(/C=C/[N+](=O)[O-])c3ccccc32)c2ccccc12`
Out: f

In: Try the compound `FC1CCN(C2(c3cccs3)CCCCC2)CC1`
Out: f

In: Try the compound `c1ccc(NC[Si]23OCCN(CCO2)CCO3)cc1`
Out: f

In: Try the compound `Cn1c(S)nc2c(Cl)cc(Cl)cc2c1=O`
Out: f

In: Try the compound `COc1ccc2cc3c4cc(OC)c(OC)cc4ccn3c2c1`
Out: f

In: Try the compound O=C(O)C1CC2C3CCC2C1C3=O (stereo unspecified)
Out: f

In: Try the compound COC1CC(=O)C2C(=O)N(c3ccccc3)C(=O)C23C(C(=O)c2ccccc2)=C(C)NC13O (stereo unspecified)
Out: f

In: Try the compound `O=C(CC(=O)Nc1ccc(C(=O)O)cc1)Nc1ccc(C(=O)O)cc1`
Out: f

In: Try the compound `COC(=O)[C@]12CC[C@H]3CN(C(=O)OCc4ccccc4)[C@H]([C@H]31)[C@H](c1ccco1)N2`
Out: f

In: Try the compound CC(C)CCCC(C)[C@H]1CCC2[C@@H]3CCC4Nc5c(cnn5-c5ccccc5)C[C@]4(C)C3CC[C@@]21C (stereo partly specified)
Out: f

In: Try the compound COC1=C(C(c2cc(OC)c(OC)c(OC)c2)c2cc3c(cc2OC)OCO3)C(=O)OC1 (stereo unspecified)
Out: f

In: Try the compound `CN1CCN=C1c1nnn(-c2ccc([N+](=O)[O-])cc2)c1-c1ccccc1`
Out: f

In: Try the compound FC(F)(F)C1(C(F)(F)F)C2CCC3(CC(F)(F)C(F)(F)S3)C1C2 (stereo unspecified)
Out: f

In: Try the compound O=C1OCc2c1cc1ccc(O)c(OC3OC(CO)C(O)C(O)C3O)c1c2-c1ccc2c(c1)OCO2 (stereo unspecified)
Out: f

In: Try the compound NC(=S)N/N=C/C(O[C@@H](/C=N/NC(N)=S)CO)n1cnc2c(N)ncnc21 (stereo partly specified)
Out: f

In: Try the compound CC1/C(=N/O)CC(c2ccccc2)N(N=O)C1c1ccccc1 (stereo unspecified)
Out: f

In: Try the compound COc1cc(C2c3cc4c(cc3C(NCC(O)CO)C3COC(=O)[C@H]23)OCO4)cc(OC)c1OC (stereo partly specified)
Out: t
